study_system: M4 muscarinic receptor (Homo sapiens, UniProt P08173)
Construct: expressed in transfected cells; host or cells: CHO (M4-CHO)
Sequence (P08173 1-479): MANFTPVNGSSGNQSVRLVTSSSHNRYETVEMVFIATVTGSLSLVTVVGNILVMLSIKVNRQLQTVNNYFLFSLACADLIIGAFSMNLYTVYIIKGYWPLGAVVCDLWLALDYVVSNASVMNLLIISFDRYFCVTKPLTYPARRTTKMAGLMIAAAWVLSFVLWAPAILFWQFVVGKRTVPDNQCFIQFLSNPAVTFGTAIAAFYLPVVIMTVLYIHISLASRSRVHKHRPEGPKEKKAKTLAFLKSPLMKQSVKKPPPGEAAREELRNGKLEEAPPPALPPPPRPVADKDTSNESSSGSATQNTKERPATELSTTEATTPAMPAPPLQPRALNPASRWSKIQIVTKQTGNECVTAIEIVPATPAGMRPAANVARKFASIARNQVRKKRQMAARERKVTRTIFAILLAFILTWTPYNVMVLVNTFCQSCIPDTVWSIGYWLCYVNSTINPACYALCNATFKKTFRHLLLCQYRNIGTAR
assay_text: Functional mobilization of intracellular calcium (FLIPR) in M4-CHO cells
Format: cell-based
applied_conditions: M4 receptor, calcium mobilization; read-out: M4 Efficacy
metric: Emax

C#CCCOC(=O)N1CCC(N2CCC3(CC2)CN(C(C)=O)c2ccc(F)cc23)CC1    65 to 85%
Fc1ccc2c(c1)C1(CCN(CC3CC4C=CC3C4)CC1)CN2 (centres unmarked)    65 to 85%
CCNC(=O)N1CC2(CCN(C3CC4CCC(C3)N4C(=O)OCC)CC2)c2cc(F)ccc21 (centres unmarked)    < 65%
CCOC(=O)N1C2CCC1CC(N1CCC3(CC1)CN(C(C)=O)c1c(F)cccc13)C2 (centres unmarked)    > 85%
CCOC(=O)N1CCC(N2CCC3(CC2)CN(C(C)=O)c2ccc(-c4cccnc4)cc23)CC1    65 to 85%
CN(C)C(=O)N1CC2(CCN(C3CC4CCC(C3)N4C(=O)O[C@@H]3CCOC3)CC2)c2cc(F)ccc21 (some centres unmarked)    65 to 85%

Looking up "CCOC(=O)N1CCC(CN2CCC3(CC2)CN(C(C)=O)c2ccc(OC)cc23)CC1" , I see its Emax listed as < 65%

Looking up "CCOC(=O)N1CCC(CN2CCC3(CC2)CN(C(C)=O)c2ccc(C)cc23)CC1" , I see its Emax listed as 65 to 85%

====

study_system: M4 muscarinic receptor (Homo sapiens, UniProt P08173)
Construct: expressed in transfected cells; host or cells: CHO (M4-CHO)
Sequence (P08173 1-479): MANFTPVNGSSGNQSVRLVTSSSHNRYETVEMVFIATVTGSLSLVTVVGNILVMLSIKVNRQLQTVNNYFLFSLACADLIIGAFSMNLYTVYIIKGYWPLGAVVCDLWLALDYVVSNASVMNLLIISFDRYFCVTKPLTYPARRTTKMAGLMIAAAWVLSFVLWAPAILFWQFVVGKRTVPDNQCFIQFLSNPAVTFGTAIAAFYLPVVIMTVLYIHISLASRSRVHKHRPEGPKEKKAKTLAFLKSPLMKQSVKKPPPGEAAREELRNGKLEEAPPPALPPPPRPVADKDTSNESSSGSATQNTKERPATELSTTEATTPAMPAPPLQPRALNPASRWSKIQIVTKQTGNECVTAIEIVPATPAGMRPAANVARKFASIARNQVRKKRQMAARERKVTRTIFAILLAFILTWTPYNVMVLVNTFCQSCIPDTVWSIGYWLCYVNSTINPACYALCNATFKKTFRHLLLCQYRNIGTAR
assay_text: Functional mobilization of intracellular calcium (FLIPR) in M4-CHO cells
Format: cell-based
applied_conditions: Table 4; 100% efficacy is the maximum response obtained with the Carbachol control
Some compounds, each annotated with its measured Emax.

// solved cases for Emax follow
CC(=O)N[C@H]1CC2(CCN(CC(=O)N3CC=CC3)CC2)c2ccccc21 [compound 533]    < 25%
CCC#CCOC(=O)N1CC[C@@H](CN2CCC3(CC2)CN(C(C)=O)c2ccccc23)C1 [compound 481]    25 to 100%
CC(=O)N1CC2(CCN(C3CC4CCC(C3)N4C(=O)O[C@H]3CCOC3)CC2)c2ccccc21 (stereo partly shown) [compound 623]    25 to 100%
CCOC(=O)N1CCC(N2CCC3(CC2)CN(C(C)=O)c2ccc(-c4ccc(F)cc4)cc23)CC1 [compound 950]    25 to 100%
CC(=O)N1CC2(CCN(C3CCN(C(=O)OC(C)C)C3)CC2)c2cc(F)ccc21 (stereo not shown) [compound 634]    < 25%

Looking up C#CC(=O)N1CCC(N2CCC3(CC2)CN(C(=O)N(C)C)c2ccc(F)cc23)CC1 [compound 574] , I see its Emax listed as 25 to 100%

Looking up C#CCOC(=O)N1CCC(N2CCC3(CC2)CN(C(C)=O)c2ccccc23)CC1 [compound 947] , I see its Emax listed as 25 to 100%

Looking up CC(=O)N[C@H]1CC2(CCN(C3CCCC3C)CC2)c2ccccc21 (stereo partly shown) [compound 830] , I see its Emax listed as 25 to 100%

Looking up C#CCOC(=O)N1CC[C@H](CN2CCC3(CC2)CN(C(C)=O)c2ccccc23)C1 [compound 493] , I see its Emax listed as > 100%

Looking up COC(=O)N1CCC(CCN2CCC3(CCC(NC(C)=O)c4ccccc43)CC2)CC1 (stereo not shown) [compound 875] , I see its Emax listed as < 25%
